test system: MIA PaCa-2; assay: Cytotoxicity against human MIA PaCa-2 cells assessed as reduction in cell viability measured after 72 hrs by CCK8 assay; type: cell-based; conditions: MIA PaCa-2, 72 h
pIC50: −log10 of the molar value.

>  <Structure string>
Cc1c(F)cccc1NC(=O)Nc1ccc2c(c1O)S(=O)(=O)CCC2

>  <pIC50>
< 5.00

$$$$
>  <Structure string>
Cc1c(F)cccc1NC(=O)Nc1ccc2c(c1O)S(=O)(=O)CC=C2

>  <pIC50>
< 5.00

$$$$

---

target: C-X-C chemokine receptor type 2 (Homo sapiens); test: Antagonist activity at human CXCR2 expressed in HEK293 cells assessed as inhibition of CXCL8-induced beta-arrestin recruitment preincubated for 30 mins followed by addition of agonist incubated for 90 mins by beta arrestin assay
The label is Met for IC50 below 400 nM and Not met for IC50 equal to or exceeding 400 nM.

>  <Structure string>
O=C(Nc1ccccc1Br)Nc1ccc2c(c1O)S(=O)(=O)CCC2

>  <Label class>
Met

$$$$
>  <Structure string>
Cc1c(F)cccc1NC(=O)Nc1ccc2c(c1O)S(=O)(=O)CCC2=O

>  <Label class>
Not met

$$$$
>  <Structure string>
Cc1c(Cl)cccc1NC(=O)Nc1ccc2c(c1O)S(=O)(=O)CC=C2

>  <Label class>
Not met

$$$$
>  <Structure string>
O=C(Nc1ccc(Br)cc1)Nc1ccc2c(c1O)S(=O)(=O)CCC2

>  <Label class>
Not met

$$$$
>  <Structure string>
O=c1c(Nc2ccccc2Cl)c(Nc2ccc3c(c2O)S(=O)(=O)CC=C3)c1=O

>  <Label class>
Met

$$$$
>  <Structure string>
O=c1c(Nc2ccccc2Br)c(Nc2ccc3c(c2O)S(=O)(=O)CCC3)c1=O

>  <Label class>
Met

$$$$
>  <Structure string>
O=c1c(Nc2ccc3c(c2O)S(=O)(=O)CCC3)c(Nc2cccc(F)c2Cl)c1=O

>  <Label class>
Not met

$$$$
>  <Structure string>
Cc1c(F)cccc1NC(=O)Nc1ccc2c(c1O)S(=O)(=O)CC=C2

>  <Label class>
Met

$$$$
>  <Structure string>
Cc1c(F)cccc1Nc1c(Nc2ccc3c(c2O)S(=O)(=O)CC=C3)c(=O)c1=O

>  <Label class>
Met

$$$$
>  <Structure string>
O=C(Nc1ccc2c(c1O)S(=O)(=O)CCC2)Nc1cccc(F)c1Cl

>  <Label class>
Met

$$$$

---

Target: C-X-C chemokine receptor type 2 (Homo sapiens, UniProt P25025)
Sequence (P25025 whole entry): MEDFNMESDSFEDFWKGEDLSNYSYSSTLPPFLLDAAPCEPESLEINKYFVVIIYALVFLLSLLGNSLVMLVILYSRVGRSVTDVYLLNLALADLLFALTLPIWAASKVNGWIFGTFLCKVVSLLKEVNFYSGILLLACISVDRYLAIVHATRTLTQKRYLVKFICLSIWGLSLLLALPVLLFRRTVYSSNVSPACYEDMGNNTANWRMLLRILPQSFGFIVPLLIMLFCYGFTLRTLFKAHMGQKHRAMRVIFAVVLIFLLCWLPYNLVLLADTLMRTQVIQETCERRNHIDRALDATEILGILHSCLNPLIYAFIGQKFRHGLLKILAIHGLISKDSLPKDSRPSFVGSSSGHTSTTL
Experiment: Antagonist activity at human CXCR2 expressed in HEK293 cells assessed as inhibition of CXCL8-induced beta-arrestin recruitment preincubated for 30 mins followed by addition of agonist incubated for 90 mins by beta arrestin assay
pIC50: −log10 of the molar value.

>  <Structure string>
O=C(Nc1ccccc1F)Nc1ccc2c(c1O)S(=O)(=O)CCC2

>  <Sign qualifier>
=

>  <pIC50>
5.99

$$$$
>  <Structure string>
Cc1c(F)cccc1Nc1c(Nc2ccc3c(c2O)S(=O)(=O)CCC3)c(=O)c1=O

>  <Sign qualifier>
=

>  <pIC50>
5.87

$$$$
>  <Structure string>
O=c1c(Nc2ccccc2Br)c(Nc2ccc3c(c2O)S(=O)(=O)CC=C3)c1=O

>  <Sign qualifier>
=

>  <pIC50>
7.11

$$$$
>  <Structure string>
O=C(Nc1ccccc1C(F)(F)F)Nc1ccc2c(c1O)S(=O)(=O)CC=C2

>  <Sign qualifier>
=

>  <pIC50>
5.80

$$$$
>  <Structure string>
Cc1ccc(NC(=O)Nc2ccc3c(c2O)S(=O)(=O)CCC3)cc1

>  <Sign qualifier>
=

>  <pIC50>
5.88

$$$$
>  <Structure string>
O=C(Nc1ccc(Cl)cc1Cl)Nc1ccc2c(c1O)S(=O)(=O)CC=C2

>  <Sign qualifier>
=

>  <pIC50>
5.23

$$$$
>  <Structure string>
O=C(Nc1ccc(Cl)cc1Cl)Nc1ccc2c(c1O)S(=O)(=O)CCC2

>  <Sign qualifier>
<

>  <pIC50>
5.00

$$$$
>  <Structure string>
O=C(Nc1ccc2c(c1O)S(=O)(=O)CCC2=O)Nc1cccc(Cl)c1Cl

>  <Sign qualifier>
=

>  <pIC50>
6.40

$$$$
>  <Structure string>
O=c1c(Nc2ccc3c(c2O)S(=O)(=O)CC=C3)c(Nc2cccc(Cl)c2Cl)c1=O

>  <Sign qualifier>
=

>  <pIC50>
5.60

$$$$
>  <Structure string>
O=c1c(Nc2ccc3c(c2O)S(=O)(=O)CC=C3)c(Nc2cccc(F)c2Cl)c1=O

>  <Sign qualifier>
=

>  <pIC50>
6.15

$$$$
>  <Structure string>
O=C(Nc1ccccc1Br)Nc1ccc2c(c1O)S(=O)(=O)CC=C2

>  <Sign qualifier>
=

>  <pIC50>
7.31

$$$$
>  <Structure string>
O=c1c(Nc2ccc3c(c2O)S(=O)(=O)CCC3)c(Nc2cccc(Cl)c2Cl)c1=O

>  <Sign qualifier>
=

>  <pIC50>
5.00

$$$$
>  <Structure string>
O=C(Nc1ccc2c(c1O)S(=O)(=O)CC=C2)Nc1cccc(F)c1Cl

>  <Sign qualifier>
=

>  <pIC50>
4.72

$$$$
>  <Structure string>
NS(=O)(=O)c1c(Cl)ccc(NC(=O)Nc2cccc(Cl)c2Cl)c1O

>  <Sign qualifier>
=

>  <pIC50>
7.89

$$$$
